Recorded GI50, one value per entry.
Test system: T-Rex 293 cell line SC3 cells lacking increased expression of androgen receptor protein
Test: Cellular growth inhibition, T-Rex 293 SC3 cells without doxycycline, CellTiter-Glo
Format: cell-based
Details: 72 h, T-Rex 293 SC3 cells not exposed to doxycycline, CellTiter-Glo 2.0

## Task Consider the compound shown here: Cc1sc2c(c1C)C(c1ccc(CC3CC(C4CCCN(c5ncc(C(=O)N[C@H]6C(C)(C)[C@H](Oc7ccc(C#N)c(Cl)c7)C6(C)C)cn5)C4)C3)cc1)=N[C@@H](C)c1nnc(C)n1-2 (stereo partly drawn) What is its recorded GI50?
## Result > 3000 nM

## Task Consider the compound shown here: `Cc1sc2c(c1C)C(c1ccc(N3CC[C@H](Nc4ncc(C(=O)N[C@H]5C(C)(C)[C@H](Oc6ccc(C#N)c(Cl)c6)C5(C)C)cn4)C3)cc1)=N[C@@H](Cc1ncco1)c1nnc(C)n1-2` What is its recorded GI50?
## Result < 500 nM

## Task Consider the compound shown here: `Cc1sc2c(c1C)C(c1ccc(OCCOC3CCN(c4ncc(C(=O)N[C@H]5C(C)(C)[C@H](Oc6ccc(C#N)c(Cl)c6)C5(C)C)cn4)CC3)cc1)=N[C@@H](CC(=O)OC(C)(C)C)c1nnc(C)n1-2` What is its recorded GI50?
## Result > 3000 nM
